# assay-explanation: Tmax in rat at 10 mg/kg, po
# Type: ADME, organism-based
# run-conditions: in vivo
value-type: Tmax (min)
Provide only the numeric value, understood in min.

Bench note: what Tmax did CC(C)Cc1cc(CNC(=O)C2C3CN(C(=O)c4ccccc4)CC32)nn1-c1ccccc1 (stereo unspecified) show? 26

* * *

# assayed-target: Voltage-gated inwardly rectifying potassium channel KCNH2 (Homo sapiens, UniProt Q12809)
# Sequence (Q12809 whole entry): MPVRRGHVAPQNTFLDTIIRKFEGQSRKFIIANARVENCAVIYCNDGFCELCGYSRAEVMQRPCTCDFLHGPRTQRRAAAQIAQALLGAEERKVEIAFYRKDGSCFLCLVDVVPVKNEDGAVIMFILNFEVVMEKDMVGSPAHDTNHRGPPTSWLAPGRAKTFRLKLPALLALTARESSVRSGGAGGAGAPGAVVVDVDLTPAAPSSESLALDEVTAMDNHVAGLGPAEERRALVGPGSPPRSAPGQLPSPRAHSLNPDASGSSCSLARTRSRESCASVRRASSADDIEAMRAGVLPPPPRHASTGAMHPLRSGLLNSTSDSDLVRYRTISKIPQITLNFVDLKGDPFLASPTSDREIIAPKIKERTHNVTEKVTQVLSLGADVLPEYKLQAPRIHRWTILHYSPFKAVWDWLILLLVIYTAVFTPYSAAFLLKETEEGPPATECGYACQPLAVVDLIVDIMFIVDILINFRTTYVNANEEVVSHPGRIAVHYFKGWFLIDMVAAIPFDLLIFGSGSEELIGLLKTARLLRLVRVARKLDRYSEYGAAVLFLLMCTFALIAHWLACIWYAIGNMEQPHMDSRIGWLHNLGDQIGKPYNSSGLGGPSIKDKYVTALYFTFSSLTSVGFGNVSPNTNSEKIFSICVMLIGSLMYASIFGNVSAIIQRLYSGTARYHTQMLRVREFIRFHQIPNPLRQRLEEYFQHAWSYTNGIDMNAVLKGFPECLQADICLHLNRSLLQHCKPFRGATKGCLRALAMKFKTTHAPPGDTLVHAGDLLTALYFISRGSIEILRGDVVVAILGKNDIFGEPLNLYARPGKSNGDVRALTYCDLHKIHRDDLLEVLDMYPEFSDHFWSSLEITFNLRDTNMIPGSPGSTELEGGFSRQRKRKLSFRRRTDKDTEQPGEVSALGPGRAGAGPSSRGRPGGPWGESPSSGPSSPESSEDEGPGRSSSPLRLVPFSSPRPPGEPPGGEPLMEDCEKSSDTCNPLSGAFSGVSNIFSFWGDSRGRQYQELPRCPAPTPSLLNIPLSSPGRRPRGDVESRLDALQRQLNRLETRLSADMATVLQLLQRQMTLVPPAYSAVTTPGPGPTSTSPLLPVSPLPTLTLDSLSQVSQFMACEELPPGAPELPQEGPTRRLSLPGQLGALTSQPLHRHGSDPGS
# assay-explanation: Inhibition of human ERG expressed in CHO-K1 cells by whole cell patch clamp method
value-type: pIC50
pIC50 is a log-scale quantity: -log10 of the concentration expressed in molar.

Known results for compounds:
CC(C)Cc1cc(CNC(=O)C2C3CN(CCC(C)(C)C)CC32)nn1-c1ccccc1 (stereo not drawn) : 5.59
CC(C)Cc1cc(CNC(=O)C2C3CN(C(=O)Cc4ccccc4)CC32)nn1-c1ccccc1 (stereo not drawn) : 4.68

Next, consider the following compound.
Any idea what pIC50 was measured for CC(C)Cc1cc(CNC(=O)C2C3CN(Cc4ccccc4)CC32)nn1-c1ccccc1 (stereo not drawn) ? 5.84

* * *

# assay-explanation: AUC (0 to infinity) in rat at 10 mg/kg, iv
# Format: ADME, organism-based
# Set-up: dose 10 mg/kg, time infinity, route intravenous
# run-conditions: in vivo
value-type: AUC(0-inf)
Answers without a unit are incomplete; give the number and then its unit.

Field request: AUC(0-inf) | item: CC(C)Cc1cc(CNC(=O)C2C3CN(C(=O)c4ccccc4)CC32)nn1-c1ccccc1 (stereo unspecified) 3860 ng·h/mL

* * *

// reported activity at 0.25 h per item
# assayed-target: CYP2D6 (Homo sapiens, UniProt P10635)
# Sequence (P10635 whole entry): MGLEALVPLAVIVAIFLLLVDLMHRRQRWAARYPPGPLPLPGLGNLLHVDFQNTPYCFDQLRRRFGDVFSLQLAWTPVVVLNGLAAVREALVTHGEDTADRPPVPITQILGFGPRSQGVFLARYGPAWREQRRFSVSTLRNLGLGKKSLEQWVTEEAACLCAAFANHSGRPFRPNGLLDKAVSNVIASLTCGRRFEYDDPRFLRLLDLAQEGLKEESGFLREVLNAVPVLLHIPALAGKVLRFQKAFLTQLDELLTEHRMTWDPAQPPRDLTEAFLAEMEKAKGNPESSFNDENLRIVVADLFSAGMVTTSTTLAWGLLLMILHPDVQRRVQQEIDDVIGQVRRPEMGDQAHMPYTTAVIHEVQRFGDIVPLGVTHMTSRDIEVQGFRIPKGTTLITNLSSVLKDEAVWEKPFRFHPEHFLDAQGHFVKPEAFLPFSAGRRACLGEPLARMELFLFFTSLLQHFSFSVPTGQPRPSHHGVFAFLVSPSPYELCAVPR
# assay-explanation: Inhibition of human CYP2D6 expressed in baculosomes assessed as remaining activity using fluorogenic substrate after 15 mins in presence of NADPH by fluorescence assay
# Type: ADME
# Parameters: concentration or dose not given beside the values
# run-conditions: recombinant human CYP2D6 in baculosomes, probe fluorogenic substrate, read-out: Activity
Dear colleague, please return just the value in %, with no unit written.

Consider the worked cases shown below.
CN(CCCc1nc2ccccc2[nH]1)C(=O)C1C2CN(CCc3ccc(C(F)(F)F)cc3)CC21 (stereo unspecified) : 27.7
CC(C)Cc1cc(CNC(=O)C2C3CN(C(=O)Cc4ccccc4)CC32)nn1-c1ccccc1 (stereo unspecified) : 83
CC(C)Cc1cc(CNC(=O)C2C3CN(Cc4ccccc4)CC32)nn1-c1ccccc1 (stereo unspecified) : 56.2
CC(C)Cc1cc(CNC(=O)C2C3CN(CCC(C)(C)C)CC32)nn1-c1ccccc1 (stereo unspecified) : 126
CC(C)Cc1cc(C(=O)NCC2C3CN(CCC(C)(C)C)CC23)nn1-c1ccccc1 (stereo unspecified) : 55.9

Now, please, on to the next molecule.
Requested field: activity at 0.25 h. Item: CC(C)Cc1cc(CNC(=O)C2C3CN(C(=O)c4ccccc4)CC32)nn1-c1ccccc1 (stereo unspecified) 94

* * *

# assay-explanation: AUClast in rat at 10 mg/kg, iv
# Format: ADME, organism-based
# Set-up: dose 10 mg/kg, time 0 - last, route intravenous
# run-conditions: in vivo
value-type: AUC(0-t) (ng·h/mL)
Field: numeric (ng·h/mL). Do not append units.

// AUC(0-t) lookup, key: CC(C)Cc1cc(CNC(=O)C2C3CN(C(=O)c4ccccc4)CC32)nn1-c1ccccc1 (stereo unspecified) 3850

Data credit: ChEMBL document CHEMBL4428088
